The reported numbers originate from patent US20150315211A1.

Tested on: MCL-1ΔNΔC
Assay: High-throughput competitive FP binding screen, FITC-MCL-1 SAHB/MCL-1ΔNΔC interaction
Details: selectivity for MCL-1ΔNΔC over BCL-XLΔC targeting (BCL-XL % Bound minus MCL-1 % Bound)
Each entry below carries its reported Spec Values.
Lab note: record just the number, no unit beside it.

Some solved entries appear below for comparison.
compound	Spec Values
O=C1NC(=S)N/C1=C1/C(=O)Nc2ccccc21	98.82
O=C1c2ccccc2CCC1Sc1nnc(-c2ccncc2)o1 (stereo not shown)	45.54

Req: Given "CC(C)CSC1=NSC2=NC(=O)/C(=C\c3ccc(SCc4ccco4)o3)C(=N)N12" , state its recorded Spec Values.
Resp: 45.2

Req: Try this compound next: "O=C1C=CC(=O)C(Sc2nnnn2-c2ccccc2)=C1"
Resp: 55.69

Req: Try this compound next: Oc1c(C(c2cccs2)N2CCCCC2)ccc2cccnc12 (stereo not shown)
Resp: 105.7

====

Target: MCL-1ΔNΔC (Homo sapiens, UniProt Q07820)
Sequence (Q07820 172-320 limits assumed, stated change not applied): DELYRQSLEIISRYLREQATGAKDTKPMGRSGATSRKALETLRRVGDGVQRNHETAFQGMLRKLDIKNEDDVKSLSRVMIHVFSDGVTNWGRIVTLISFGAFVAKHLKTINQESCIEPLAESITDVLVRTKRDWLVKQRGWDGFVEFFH
Assay: High-throughput competitive FP binding screen, FITC-MCL-1 SAHB/MCL-1ΔNΔC interaction
Parameters: the C-terminal alpha-helix was deleted from each of these constructs; GST (N, cleaved yes); made in house
Details: FITC-MCL-1 SAHB/MCL-1ΔNΔC interaction pair, competitive FP screen
Each entry below carries its reported MCL-1% Bound.
Number only, in %; omit the unit.

Some solved entries appear below for comparison.
molecule	experimental-value
C=C/C(=C\C)N(CC)S(=O)(=O)c1ccc(Oc2ccc(-n3ccnc3)cc2)nc1	51.21
COc1ccc2c(c1)CC[C@@H]1C2CC[C@@]2(C)C1CC[C@@H]2NCCCCCCN1C(=O)CCC1=O (some centres unmarked) [drawing 365]	56.6
O=C1C(Sc2nc[nH]n2)=C/C(=N/S(=O)(=O)c2ccc(F)cc2)c2ccccc21	4.952

Req: Requested read-out MCL-1% Bound, target or system MCL-1ΔNΔC (Homo sapiens, UniProt Q07820), entry COC(=O)C1C(=O)NC(S)=C(C#N)C1c1ccccc1Cl (centres unmarked)
Resp: 47.02

Req: Try this molecule next: "O=C1/C(=C\C=C\c2ccco2)SC(=S)N1NS(=O)(=O)c1ccccc1"
Resp: 23.0

====

Biological target: UniProt:Q07817
Sequence (Q07817 1-212 limits assumed, stated change not applied): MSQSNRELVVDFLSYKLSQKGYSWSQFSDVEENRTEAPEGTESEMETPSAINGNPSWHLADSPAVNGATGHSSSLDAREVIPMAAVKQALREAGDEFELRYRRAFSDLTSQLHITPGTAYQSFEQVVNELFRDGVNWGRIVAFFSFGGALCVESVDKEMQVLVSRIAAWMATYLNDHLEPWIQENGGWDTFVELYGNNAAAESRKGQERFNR
Experiment: High-throughput competitive FP binding screen, FITC-BAD BH3/BCL-XLΔC interaction
Settings: FITC-BAD BH3/BCL-XLΔC interaction pair, competitive FP screen
quantity-measured: BCL-XL % Bound (%)
Number only, in %; omit the unit.

Some solved entries appear below for comparison.
molecule	system	BCL-XL % Bound [%]
CCOC(=O)C1=C(Nc2cccc(Cl)c2)S/C(=C\c2ccco2)C1=O	UniProt:Q07817	111.2
O=C(NC(=S)NCc1ccccc1)C1CCCC1	UniProt:Q07817	92.1
Cc1ccc2c(CC(=O)NCC(=O)OCc3ccccc3)coc2c1	UniProt:Q07817	95.64
O=C1C=CC(=O)N1CCc1ccc(Cl)cc1	UniProt:Q07817	97.07
O=C(O)CC1NC(=S)N(Cc2ccccc2)C1=O (stereo not drawn)	UniProt:Q07817	98.89
Oc1ccc(CNc2ccccc2O)cc1	UniProt:Q07817	89.38

Req: Given "O=C(/C=C/c1ccco1)NCc1ccccc1" , state its recorded BCL-XL % Bound.
Resp: 101.8

====

Molecular target: MCL-1ΔNΔC (Homo sapiens)
Experiment: High-throughput competitive FP binding screen, FITC-MCL-1 SAHB/MCL-1ΔNΔC interaction
Parameters: the C-terminal alpha-helix was deleted from each of these constructs; GST (N, cleaved yes); made in house
Each entry below carries its reported MCL-1% Bound.
Number only, in %; omit the unit.

Req: Given "CCN1C(=O)C(=Cc2ccc(O)c(I)c2)C(=O)N(CC)C1=S" , state its recorded MCL-1% Bound.
Resp: 39.32

Req: Try this compound next: "C=CCN1C(=O)/C(=C\c2ccc(OC)cc2)C(=O)NC1=S"
Resp: 19.08

Req: Try this compound next: Cc1cc2c(C(C)C)c(O)c(O)c(C=O)c2c(O)c1-c1c(C)cc2c(C(C)C)c(O)c(O)c(C=O)c2c1O [drawing 158]
Resp: 3.955

Req: Try this compound next: "Cc1ccccc1C=C1C(=O)N(C)C(=S)N(C)C1=O"
Resp: 51.19

Req: Try this compound next: O=C1NC(=O)N(CCC2=CCCCC2)C(=O)/C1=C/c1cnc(-c2ccccc2)nc1 [drawing 249]
Resp: 43.51

Req: Try this compound next: "Cc1sc(-n2c(C)cc(C=C3C(=O)NC(=S)NC3=O)c2C)c(C#N)c1C"
Resp: 45.2

Req: Try this compound next: "C=CCN1C(=O)/C(=C\c2ccc(N(CC)CC)cc2)C(=O)NC1=S"
Resp: 41.82

Req: Try this compound next: O=C1NC(=O)N(CCC2=CCCCC2)C(=O)/C1=C/c1cnc(-c2ccccc2)nc1 [drawing 98]
Resp: 43.51

Req: Try this compound next: CC1=NOC(=O)/C1=C/c1ccc(-c2ccc(Cl)cc2)o1 [drawing 53]
Resp: 38.47

Req: Try this compound next: "O=C1NC(=O)N(CCc2ccc(F)cc2)C(=O)/C1=C\c1ccc(O)c(O)c1"
Resp: 30.59

Req: Try this compound next: CC1=NOC(=O)/C1=C/c1ccc(-c2ccc(Cl)cc2)o1 [drawing 255]
Resp: 38.47

Req: Try this compound next: Oc1c(Cl)cc(Cl)c(Cl)c1Cc1c(O)c(Cl)cc(Cl)c1Cl [drawing 23]
Resp: 41.01

Req: Try this compound next: "CCc1ccc(C=C2C(=O)N(C)C(=S)N(C)C2=O)cc1"
Resp: 55.45

Req: Try this compound next: Oc1c(Cl)cc(Cl)c(Cl)c1Cc1c(O)c(Cl)cc(Cl)c1Cl [Hexachlorophene, reference compound]
Resp: 41.01

Req: Try this compound next: "Cc1cc2c(C(C)C)c(O)c(O)c(C=O)c2c(O)c1-c1c(C)cc2c(C(C)C)c(O)c(O)c(C=O)c2c1O.[Na+].[Na+]"
Resp: 3.955

Req: Try this compound next: O=C(O)C(Cc1ccccc1)N1C(=O)/C(=C/C=C/c2ccco2)SC1=S (centres unmarked)
Resp: −9.611

Req: Try this compound next: N#C/C(=C\c1ccc(O)c(O)c1)C(N)=S [drawing 16]
Resp: 34.55
